Biological target: HLA-A*3101 (human)
Assay: competition with 125I probe peptide on purified HLA-A*3101; relative to standard peptide 941.12
Settings: remark: other sources report otherwise
attribute_measured: binding affinity ratio (IC50 standard peptide / IC50 test peptide)
Give bare numbers.

In [3]: df
Out[3]:
                                     binder  quantitative_result
0  SAGPCALR (modifications not checked) [HBV X 65 peptide SAGPCALR]               0.0029
1  TSAICSVVR (modifications not checked) [HBV POL 519 peptide …]                 0.06

Report binding affinity ratio (IC50 standard peptide / IC50 test peptide) for each item below.
1. TAELLAACFAR (modifications not checked) [HBV POL 716 peptide …]
2. SAICSVVR (modifications not checked) [HBV POL 520 peptide SAICSVVR]

0.0066
0.028
